B1: glmS ribozyme (parent)
chain: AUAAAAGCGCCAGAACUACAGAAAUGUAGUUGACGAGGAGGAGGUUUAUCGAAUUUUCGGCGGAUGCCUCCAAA

Variants of: B1
Assay: KM; higher = weaker cofactor use; RNA array
Details: with glucosamine-6-phosphate
Task for the reader: assign each of the following variants its reported KM.
Provide the reading as a plain figure in µM.

Give its KM value. Item: U31G U56A
4370

And for U30A G41U ?
608

And for A14G A53U ?
1060

And for A14C U55C ?
1800

And for A14G A39C ?
3470

And for A12G U65A ?
3880

And for U46G U65C ?
1730

And for G41C A53C ?
3660

And for G32C C67G ?
2060

And for A15C G44A ?
3920

And for G41C G66A ?
4000

And for A14C C58A ?
3250

And for C16G G66U ?
2380

And for A53C U65A ?
1720

And for U45G C58A ?
3170

And for U69C ?
201

And for A48C U54A ?
1720

And for U31A G32C ?
1950

And for A12C A53U ?
2160

And for U31A U54A ?
1640

And for A12U U57A ?
4040

And for U47C C58A ?
4240

And for C11A A14C ?
2820

And for A53C C71A ?
1610

And for G13C A14G ?
3980

And for A14C U54G ?
3310

And for U46A U55G ?
1350

And for G13U U31A ?
3730

And for A12C U65A ?
2790

And for A14C C16G A53U ?
1700

And for G13U C71A ?
1130

And for U46C U55A ?
1110

And for U30C U54G ?
411

And for C16U U31C ?
1980

And for U47A A64C ?
720

And for C10A A42C ?
2410

And for U30G G41U ?
440

And for U31G G32C ?
5520

And for A39G U65G ?
3200

And for C11U A39U ?
3780

And for A12U G44A ?
2200

And for U46G U47C ?
981

And for U31A U57G ?
2970

And for G9U C61G ?
2350

And for G29U U30G ?
1780

And for A14G A15U U30G ?
263

And for U45A U47G ?
1910

And for G13U U30C ?
3530

And for G13A A15U ?
3530

And for A14G G66C ?
1410

And for G41U A42C ?
2750

And for A39U A52G ?
4750

And for G44A U45G ?
1850

And for A42G U57G ?
514

And for A53U U65G ?
4560

And for A15C U57A ?
2770

And for C11A U56A ?
2090

And for G43U C68U ?
1190

And for A14C U56A ?
3990

And for G41A U56G ?
1740

And for U31G A53C ?
2500

And for A12U G32U ?
4270

And for G29A U57A ?
877

And for G40A G41A U55G ?
578

And for G44A A53U ?
1820

And for C16G U54G ?
1080

And for C11U U65G ?
2580

And for A15C U49G ?
1520

And for U31A A39G ?
4340

And for U31A G44A ?
4780

And for U45A U49G ?
1560

And for G43U ?
986

And for A48C U56C ?
357
